Below is a list of entries, each paired with its recorded pEC50 value.
- Organism: Rattus norvegicus
- Test name: Tested in vitro for growth hormone release from rat pituitary cells
- Format: functional, cell-based, Pituitary gland cell
- Condition summary: Rattus norvegicus, Pituitary gland cell
pEC50: −log10 of the molar value.

| Structure smiles string | Inequality sign | pEC50 |
| --- | --- | --- |
| CCOC(=O)[C@@H](CCCc1ccccc1)NC(=O)[C@@H](Cc1c[nH]c2ccccc12)NC(=O)C(C)(C)N | = | 5.94 |
| CCOC(=O)[C@H](Cc1ccccc1)NC(=O)[C@@H](Cc1c[nH]c2ccccc12)NC(=O)C(C)(C)N | = | 6.62 |
| CCOC(=O)[C@H](CCc1ccccc1)N(C)C(=O)[C@@H](Cc1c[nH]c2ccccc12)NC(=O)C(C)(C)N | = | 6.57 |
| CC(C)(N)C(=O)N[C@H](Cc1c[nH]c2ccccc12)C(=O)N[C@H](CCc1ccccc1)C(=O)O | < | 6.30 |
| COC(=O)[C@@H](CCc1ccccc1)NC(=O)[C@@H](Cc1c[nH]c2ccccc12)NC(=O)C(C)(C)N | = | 7.74 |
| CC(C)(N)C(=O)N[C@H](Cc1c[nH]c2ccccc12)C(=O)N[C@H](CCc1ccccc1)C(=O)OCc1ccccc1 | = | 6.30 |
| CCOC(=O)[C@H](CCc1ccccc1)NC(=O)[C@@H](Cc1c[nH]c2ccccc12)NC(=O)C(C)(C)N | = | 8.52 |
| CC(C)(N)C(=O)N[C@H](Cc1c[nH]c2ccccc12)C(=O)NCCCCc1ccccc1 | = | 6.15 |
| CCOC(=O)[C@H](Cc1cccc2ccccc12)NC(=O)[C@@H](Cc1c[nH]c2ccccc12)NC(=O)C(C)(C)N | = | 7.40 |
| CCOC(=O)[C@@H](CCc1ccccc1)NC(=O)[C@@H](Cc1cccc2ccccc12)NC(=O)C(C)(C)N | < | 7.30 |
| CCOC(=O)[C@H](Cc1ccc2ccccc2c1)NC(=O)[C@@H](Cc1c[nH]c2ccccc12)NC(=O)C(C)(C)N | = | 5.70 |
| CC(C)(N)C(=O)N[C@H](Cc1c[nH]c2ccccc12)C(=O)NCc1ccc2ccccc2c1 | = | 7.07 |
| CCOC(=O)[C@@H](Cc1ccccc1)NC(=O)[C@@H](Cc1c[nH]c2ccccc12)NC(=O)C(C)(C)N | = | 6.46 |
| CCOC(=O)[C@H](CCCc1ccccc1)NC(=O)[C@@H](Cc1c[nH]c2ccccc12)NC(=O)C(C)(C)N | = | 6.09 |
| CC(C)(N)C(=O)N[C@H](Cc1c[nH]c2ccccc12)C(=O)NCCCc1ccccc1 | = | 6.41 |
| CC(C)OC(=O)[C@@H](CCc1ccccc1)NC(=O)[C@@H](Cc1c[nH]c2ccccc12)NC(=O)C(C)(C)N | = | 8.40 |
| CCNC(=O)[C@@H](CCc1ccccc1)NC(=O)[C@@H](Cc1c[nH]c2ccccc12)NC(=O)C(C)(C)N | = | 6.61 |
| CC(C)(N)C(=O)N[C@H](Cc1c[nH]c2ccccc12)C(=O)NCCc1cccc2ccccc12 | = | 6.07 |
| CCOC(=O)[C@H](Cc1ccccc1)N(C)C(=O)[C@@H](Cc1c[nH]c2ccccc12)NC(=O)C(C)(C)N | = | 7.40 |
